Reference for the values: paper PMC5958137

target_or_test_system: Calreticulin (CRT) (Homo sapiens)
Sequence (P27797 18-417): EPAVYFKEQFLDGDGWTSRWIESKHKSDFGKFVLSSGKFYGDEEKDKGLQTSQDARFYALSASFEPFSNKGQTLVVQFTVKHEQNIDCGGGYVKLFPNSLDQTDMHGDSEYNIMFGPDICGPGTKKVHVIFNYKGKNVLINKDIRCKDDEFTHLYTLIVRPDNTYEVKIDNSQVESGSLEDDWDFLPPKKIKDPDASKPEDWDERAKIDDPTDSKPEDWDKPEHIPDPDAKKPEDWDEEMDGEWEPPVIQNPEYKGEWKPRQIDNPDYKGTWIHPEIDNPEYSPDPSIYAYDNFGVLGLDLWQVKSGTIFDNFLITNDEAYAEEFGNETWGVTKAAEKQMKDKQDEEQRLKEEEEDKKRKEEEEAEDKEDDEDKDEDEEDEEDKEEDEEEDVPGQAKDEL
reported_metric: IC50 (nM)
# unit: nM | format: bare number

Exercise: Enter recorded IC50 with Calreticulin (CRT) (Homo sapiens) for `CCCN1CCN(c2ccccc2C2CC(C)(C)CC(C)(C)C2)CC1` here.
Solution: 170
